Where these numbers come from: PubChem BioAssay (NCI)

Please respond with reported growth inhibition for every item in the list.
method description: NCI Yeast Anticancer Drug Screen. Data for the sgs1 mgt1 strain (AID 161);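 further: 0% = growth of cultures given vehicle only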
condition: S. cerevisiae sgs1 mgt1 strain, at 5.0 µM (retest, dose inferred, filed as 0.5), active compounds read high
The panel holds about 79,000 compounds, 15% with a hit somewhere; the sample as a whole holds those more often.
Answers are plain numbers, in %.

Here is how some molecules turned out for growth inhibition.
{"columns": ["smiles notation", "growth inhibition [%]"],
 "data": [
  ["COc1ccc2c(ccc3oc([N+](=O)[O-])cc32)c1", 93],
  ["C[CH2][Sn]([Cl])([CH2]C)[CH2]C", 0],
  ["COS(=O)(=O)c1ccccc1", -4]
]}

Okay, now this molecule:
Endpoint output: growth inhibition of O=c1ccc(N=Cc2ccc(N(CCCl)CCCl)cc2)ccc1O . Value?
97

----------
method description: NCI Yeast Anticancer Drug Screen. Data for the mlh1 rad18 strain (AID 175)
condition: S. cerevisiae mlh1 rad18 strain growth inhibition; at 50.0 µM
About 79,000 compounds went through this panel and 15% of them were active in at least one assay; those are over-represented in the sample as a whole. Active and inactive are the calls of the source. Rule as the data show it: active = growth inhibition above about 70%; inactive = the rest.
Response enum: label 1 = active, label 0 = inactive

Worked examples, 3 molecules total:
{"columns": ["molecule", "label"],
 "data": [
  ["O=C(Nc1ccc([As](=O)(O)O)cc1)Nc1cccc(Cl)c1Cl", "label 0"],
  ["C1CN([PH+](N2CC2)N2CC2)CCO1.[C-]#[O+].[C-]#[O+].[C-]#[O+].[C-]#[O+].[C-]#[O+].[Mo]", "label 0"],
  ["CC1CCCN(C(c2ccccc2)C(O)c2ccccc2)C1 (stereo not given)", "label 0"]
]}

Assay result, entry CCOP(=O)(N=S=O)OCC — outcome?
label 0

Try this molecule next: COC12C(COC(N)=O)C3=C(C(=O)C(C)=C(NC(C)C)C3=O)N1CC1NC12 (stereo not given)
label 1

Try this molecule too: CCC[As](=O)(O)CC(C)C
label 0

Thanks! And NC(=O)Nc1ccc([As](Sc2ccccc2C(=O)O)Sc2ccccc2C(=O)O)cc1 ?
label 0

And for NC(=NCCCC(NCc1ccccc1)C(=O)O)N[N+](=O)[O-] (stereo not given) ?
label 0

What would you report for O=c1[nH]c(=S)[nH]c(O)c1/C=C1\C=CC=N1 ?
label 0

Please do the same for CCOC(=O)/C(=C\c1cccc(F)c1)[Se]c1ccccc1 as well.
label 0

Would you mind doing CCC1(CC(C)O)C(=O)NC(=O)NC1=O (stereo not given) as well?
label 0

// next record CCCCCCCCCCCCCCCCOc1ccc(S(=O)(=O)F)cc1C(=O)Nc1ccc(S(=O)(=O)Nc2cccc3ccccc23)cc1
label 0

Do the same for CC1OC(O[C@H]2C[C@@H](O)[C@]3(CO)[C@H]4[C@H](O)C[C@]5(C)[C@@H](C6=CC(=O)OC6)CC[C@]5(O)[C@@H]4CC[C@]3(O)C2)C(O)C(O)C1O (stereo not given in full) please
label 0

Would you mind doing CC1CCC(OC(=O)CCl)CC1 (stereo not given) as well?
label 0

SCc1c(Cl)c(Cl)c(Cl)c(Cl)c1Cl.[Hg] , same question.
label 0

----------
method description: NCI Yeast Anticancer Drug Screen. Data for the bub3 strain (AID 167)
condition: S. cerevisiae bub3 mutant strain, at 50.0 µM (retest, dose inferred, filed as 5.0), active compounds read high
The panel holds about 79,000 compounds, 15% with a hit somewhere; the sample as a whole holds those more often. The source made the active and inactive calls. Rule as the data show it: active = growth inhibition above about 70%; inactive = the rest.
Record form. Attribute: growth inhibition. Fill in for each entry.

{"columns": ["compound", "assay value"],
 "data": [
  ["CCCCCc1cc(O)c(CCCC)c(O)c1", "83% (active)"],
  ["CC[C@@]1(O)C(=O)OCc2c1cc1n(c2=O)Cc2cc3c(OC)cccc3nc2-1", "78% (active)"],
  ["O=[As]c1ccc(O)c(O)c1 (stereo not drawn)", "99% (active)"],
  ["NCCNCCNCCNCCN (tested in a mixture with another compound)", "-5% (inactive)"],
  ["O=[N+]([O-])c1ccc([N+](=O)[O-])c2ccccc12", "95% (active)"],
  ["CC(=O)Nc1ccccc1[As](OC(C)=O)c1ccccc1 (stereo not drawn)", "99% (active)"],
  ["O=C(c1ccccc1)c1cc(CN(CCCl)CCCl)c(O)cc1O", "-4% (inactive)"]
]}

# ---- query compound ----
// query growth inhibition value for entry C[CH2][Pb]([CH2]C)([CH2]C)[O]C(=O)COc1ccc(Cl)cc1Cl
95% (active)
